Biological target: allosteric site of the mGluR5 receptor (Homo sapiens, UniProt P41594)
Sequence (P41594 21-1212): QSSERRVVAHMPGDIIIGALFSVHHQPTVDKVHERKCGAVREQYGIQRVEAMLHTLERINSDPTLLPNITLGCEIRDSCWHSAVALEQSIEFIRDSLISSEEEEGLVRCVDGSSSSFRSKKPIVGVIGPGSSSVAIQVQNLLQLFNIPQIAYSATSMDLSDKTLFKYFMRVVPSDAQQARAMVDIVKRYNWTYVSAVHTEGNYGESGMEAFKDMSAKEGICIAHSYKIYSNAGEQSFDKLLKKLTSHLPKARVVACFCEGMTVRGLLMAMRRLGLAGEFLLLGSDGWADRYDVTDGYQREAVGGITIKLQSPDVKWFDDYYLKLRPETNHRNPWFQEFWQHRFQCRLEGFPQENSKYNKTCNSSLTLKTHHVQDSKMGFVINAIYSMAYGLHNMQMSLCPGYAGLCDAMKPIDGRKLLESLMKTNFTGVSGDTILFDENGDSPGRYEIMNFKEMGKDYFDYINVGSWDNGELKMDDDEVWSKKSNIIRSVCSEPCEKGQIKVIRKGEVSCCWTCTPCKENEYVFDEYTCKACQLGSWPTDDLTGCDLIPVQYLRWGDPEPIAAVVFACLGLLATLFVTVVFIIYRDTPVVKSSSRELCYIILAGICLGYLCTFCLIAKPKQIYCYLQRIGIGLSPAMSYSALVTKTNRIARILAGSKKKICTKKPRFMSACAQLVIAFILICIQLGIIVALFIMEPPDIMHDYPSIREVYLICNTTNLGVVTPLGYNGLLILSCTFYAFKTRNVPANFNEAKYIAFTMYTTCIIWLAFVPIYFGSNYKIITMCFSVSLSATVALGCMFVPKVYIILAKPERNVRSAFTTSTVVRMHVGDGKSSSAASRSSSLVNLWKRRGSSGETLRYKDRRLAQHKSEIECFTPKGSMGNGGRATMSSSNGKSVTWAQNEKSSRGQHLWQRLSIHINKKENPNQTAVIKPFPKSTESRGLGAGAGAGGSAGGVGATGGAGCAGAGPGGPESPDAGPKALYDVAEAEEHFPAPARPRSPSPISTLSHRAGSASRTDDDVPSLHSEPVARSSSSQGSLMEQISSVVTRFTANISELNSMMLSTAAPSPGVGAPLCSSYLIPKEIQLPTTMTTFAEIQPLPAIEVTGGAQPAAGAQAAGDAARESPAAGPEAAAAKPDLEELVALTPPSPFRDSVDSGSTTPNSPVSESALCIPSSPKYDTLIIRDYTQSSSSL
Test: PDSP binding at the allosteric site of the mGluR5 receptor
Settings: binding affinity at allosteric site; type of constant not given
# mGluR5 listing for each entry below
observed property: mGluR5 (µM)

compound: CCOC(=O)C1=C(C)NC(C)=C(C(=O)OCC)C1c1c(-c2ccccc2Br)noc1C
assay result: 1.524

compound: CCOC(=O)C1=C(C)NC(C)=C(C(=O)OCc2cn(CCc3ccccc3)nn2)C1c1c(-c2ccc(Br)cc2)noc1C (stereo not shown)
assay result: 1.972

compound: CCOC(=O)C1=C(C)NC(C)=C(C(=O)OCc2cn(CCOCCOCCOCCOCCOCCn3cc(COC(=O)C4=C(C)NC(C)=C(C(=O)OCC)C4c4c(-c5ccccc5Br)noc4C)nn3)nn2)C1c1c(-c2ccccc2Br)noc1C (stereo not shown)
assay result: 4.858

compound: CCOC(=O)C1=C(C)NC(C)=C(C(=O)OCc2cn(CCOCCOCCOCCOCCOCCn3cc(COC(=O)C4=C(C)NC(C)=C(C(=O)OCC)C4c4c(-c5cccc(Br)c5)noc4C)nn3)nn2)C1c1c(-c2cccc(Br)c2)noc1C (stereo not shown)
assay result: 8.638
